- Tested on: ANGPTL3 gene
- Test description: ANGPTL3 gRNA/SpCas9 editing in primary cynomolgus hepatocytes (Table 3)
- Type: cell-based, cynomolgus monkey
# Cyno Primary Hepatocyte Editing % 500 ng/ml annotations
Reported property: Cyno Primary Hepatocyte Editing % 500 ng/ml (%)

molecule="GA125: ANGPTL3 gRNA; protospacer TGATGGTAAGACACTTTGGT (SEQ ID NO: 123) (nucleic acid, 2'-O-methyl at 1, 2, other sugars, backbone and T or U not given here; further chemistry not fully specified) guide: UGATGGTAAGACACTTTGGTGTTTTAGAGCTAGAAATAGCAAGTTAAAATAAGGCTAGTCCGTTATCAACTTGAAAAAGTGGCACCGAGTCGGTGCTTTT" recorded_number=19.72
molecule="GA143: ANGPTL3 gRNA; protospacer TTAATTCAACATCGAATAGA (SEQ ID NO: 141) (nucleic acid, 2'-O-methyl at 1, 2, other sugars, backbone and T or U not given here; further chemistry not fully specified) guide: UUAATTCAACATCGAATAGAGTTTTAGAGCTAGAAATAGCAAGTTAAAATAAGGCTAGTCCGTTATCAACTTGAAAAAGTGGCACCGAGTCGGTGCTTTT" recorded_number=21.16
molecule="GA131: ANGPTL3 gRNA; protospacer GAAGATAGAGAAATTTCTGT (SEQ ID NO: 129) (nucleic acid, 2'-O-methyl at 1, 2, other sugars and backbone not given here; further chemistry not fully specified) guide: GAAGATAGAGAAATTTCTGTGTTTTAGAGCTAGAAATAGCAAGTTAAAATAAGGCTAGTCCGTTATCAACTTGAAAAAGTGGCACCGAGTCGGTGCTTTT" recorded_number=27.57
molecule="GA137: ANGPTL3 gRNA; protospacer TATCAGGTAAAACCTGTCTA (SEQ ID NO: 135) (nucleic acid, 2'-O-methyl at 1, 2, other sugars, backbone and T or U not given here; further chemistry not fully specified) guide: UATCAGGTAAAACCTGTCTAGTTTTAGAGCTAGAAATAGCAAGTTAAAATAAGGCTAGTCCGTTATCAACTTGAAAAAGTGGCACCGAGTCGGTGCTTTT" recorded_number=30.57
molecule="GA115: ANGPTL3 gRNA; protospacer AACATAGCAAATCTTGATTT (SEQ ID NO: 113) (nucleic acid, 2'-O-methyl at 1, 2, other sugars and backbone not given here; further chemistry not fully specified) guide: AACATAGCAAATCTTGATTTGTTTTAGAGCTAGAAATAGCAAGTTAAAATAAGGCTAGTCCGTTATCAACTTGAAAAAGTGGCACCGAGTCGGTGCTTTT" recorded_number=25.51
molecule="GA126: ANGPTL3 gRNA; protospacer GGAGTAGTTCTTGGTGCTCT (SEQ ID NO: 124) (nucleic acid, 2'-O-methyl at 1, 2, other sugars and backbone not given here; further chemistry not fully specified) guide: GGAGTAGTTCTTGGTGCTCTGTTTTAGAGCTAGAAATAGCAAGTTAAAATAAGGCTAGTCCGTTATCAACTTGAAAAAGTGGCACCGAGTCGGTGCTTTT" recorded_number=17.57
molecule="GA141: ANGPTL3 gRNA; protospacer TTGAGAGTTGCTGGGTCTGA (SEQ ID NO: 139) (nucleic acid, 2'-O-methyl at 1, 2, other sugars, backbone and T or U not given here; further chemistry not fully specified) guide: UUGAGAGTTGCTGGGTCTGAGTTTTAGAGCTAGAAATAGCAAGTTAAAATAAGGCTAGTCCGTTATCAACTTGAAAAAGTGGCACCGAGTCGGTGCTTTT" recorded_number=10.32
molecule="GA117: ANGPTL3 gRNA; protospacer ACTACAAGTCAAAAATGAAG (SEQ ID NO: 115) (nucleic acid, 2'-O-methyl at 1, 2, other sugars and backbone not given here; further chemistry not fully specified) guide: ACTACAAGTCAAAAATGAAGGTTTTAGAGCTAGAAATAGCAAGTTAAAATAAGGCTAGTCCGTTATCAACTTGAAAAAGTGGCACCGAGTCGGTGCTTTT" recorded_number=26.11
molecule="GA132: ANGPTL3 gRNA; protospacer GGAAGATAGAGAAATTTCTG (SEQ ID NO: 130) (nucleic acid, 2'-O-methyl at 1, 2, other sugars and backbone not given here; further chemistry not fully specified) guide: GGAAGATAGAGAAATTTCTGGTTTTAGAGCTAGAAATAGCAAGTTAAAATAAGGCTAGTCCGTTATCAACTTGAAAAAGTGGCACCGAGTCGGTGCTTTT" recorded_number=26
molecule="GA116: ANGPTL3 gRNA; protospacer GTAGAATTTTTTCTTCTAGG (SEQ ID NO: 114) (nucleic acid, 2'-O-methyl at 1, 2, other sugars, backbone and T or U not given here; further chemistry not fully specified) guide: GUAGAATTTTTTCTTCTAGGGTTTTAGAGCTAGAAATAGCAAGTTAAAATAAGGCTAGTCCGTTATCAACTTGAAAAAGTGGCACCGAGTCGGTGCTTTT" recorded_number=19.83
molecule="GA148: ANGPTL3 gRNA; protospacer ACAAAACTTCAATGAAACGT (SEQ ID NO: 146) (nucleic acid, 2'-O-methyl at 1, 2, other sugars and backbone not given here; further chemistry not fully specified) guide: ACAAAACTTCAATGAAACGTGTTTTAGAGCTAGAAATAGCAAGTTAAAATAAGGCTAGTCCGTTATCAACTTGAAAAAGTGGCACCGAGTCGGTGCTTTT" recorded_number=69.75
